target: Cholinesterase (Equus caballus); assay: Inhibition of equine serum BChE using butyrylthiocholine iodide as substrate after 20 mins measured for 1 min interval for 30 mins by Ellman's method
Sequence (P81908 whole entry): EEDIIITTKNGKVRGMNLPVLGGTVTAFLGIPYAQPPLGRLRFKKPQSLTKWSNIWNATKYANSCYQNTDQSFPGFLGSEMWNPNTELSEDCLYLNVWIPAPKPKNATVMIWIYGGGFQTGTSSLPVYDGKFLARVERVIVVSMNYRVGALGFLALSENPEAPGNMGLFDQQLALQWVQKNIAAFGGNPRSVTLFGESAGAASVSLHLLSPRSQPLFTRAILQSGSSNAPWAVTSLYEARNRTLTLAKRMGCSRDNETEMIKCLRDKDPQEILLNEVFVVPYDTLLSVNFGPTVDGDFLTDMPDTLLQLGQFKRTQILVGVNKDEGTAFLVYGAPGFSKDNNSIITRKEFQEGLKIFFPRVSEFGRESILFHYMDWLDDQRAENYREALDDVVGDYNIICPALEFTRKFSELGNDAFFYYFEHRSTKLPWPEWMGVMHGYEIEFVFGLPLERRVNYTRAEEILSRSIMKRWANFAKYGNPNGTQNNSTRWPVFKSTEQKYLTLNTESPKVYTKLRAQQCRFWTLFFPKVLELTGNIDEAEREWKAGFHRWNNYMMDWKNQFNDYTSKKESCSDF
Can you tell me Ki for the items I'm about to list?

# return Ki for each item in the list
1. C[C@H](N)C(=O)O[C@H]1CC[C@]2(C)[C@H]3C(=O)C=C4[C@@H]5C[C@@](C)(C(=O)O)CC[C@]5(C)CC[C@@]4(C)[C@]3(C)CC[C@H]2C1(C)C
2. CC1(C)[C@@H](O)CC[C@]2(C)[C@H]3C(=O)C=C4[C@@H]5C[C@@](C)(C(=O)OC/C=C/CBr)CC[C@]5(C)CC[C@@]4(C)[C@]3(C)CC[C@@H]12
3. CC1(C)[C@@H](O)CC[C@]2(C)[C@H]3C(=O)C=C4[C@@H]5C[C@@](C)(C(=O)OCCBr)CC[C@]5(C)CC[C@@]4(C)[C@]3(C)CC[C@@H]12
4. CCOC(=O)[C@@]1(C)CC[C@]2(C)CC[C@]3(C)C(=CC(=O)[C@@H]4[C@@]5(C)CC[C@H](OC(=O)[C@@H](N)Cc6ccccc6)C(C)(C)[C@@H]5CC[C@]43C)[C@@H]2C1
5. CC1(C)[C@@H](O)CC[C@]2(C)[C@H]3C(=O)C=C4[C@@H]5C[C@@](C)(C(=O)O)CC[C@]5(C)CC[C@@]4(C)[C@]3(C)CC[C@@H]12
6. COC(=O)[C@@]1(C)CC[C@]2(C)CC[C@]3(C)C(=CC(=O)[C@@H]4[C@@]5(C)CC[C@H](OC(=O)[C@@H](N)CCN)C(C)(C)[C@@H]5CC[C@]43C)[C@@H]2C1
7. CCOC(=O)[C@@]1(C)CC[C@]2(C)CC[C@]3(C)C(=CC(=O)[C@@H]4[C@@]5(C)CC[C@H](OC(=O)[C@H](Cc6ccccc6)NC(=O)OC(C)(C)C)C(C)(C)[C@@H]5CC[C@]43C)[C@@H]2C1
8. COC(=O)[C@@]1(C)CC[C@]2(C)CC[C@]3(C)C(=CC(=O)[C@@H]4[C@@]5(C)CC[C@H](OC(=O)CN)C(C)(C)[C@@H]5CC[C@]43C)[C@@H]2C1

Ans:
1. > 100 µM
2. > 40 µM
3. > 100 µM
4. > 100 µM
5. > 100 µM
6. > 100 µM
7. > 2 µM
8. > 100 µM

# return Ki for each item in the list
1. COC(=O)[C@@]1(C)CC[C@]2(C)CC[C@]3(C)C(=CC(=O)[C@@H]4[C@@]5(C)CC[C@H](OC(=O)[C@@H](N)Cc6ccccc6)C(C)(C)[C@@H]5CC[C@]43C)[C@@H]2C1
2. CC1(C)[C@@H](O)CC[C@]2(C)[C@H]3C(=O)C=C4[C@@H]5C[C@@](C)(C(=O)NCCCCCN)CC[C@]5(C)CC[C@@]4(C)[C@]3(C)CC[C@@H]12
3. COC(=O)[C@@]1(C)CC[C@]2(C)CC[C@]3(C)C(=CC(=O)[C@@H]4[C@@]5(C)CC[C@H](OC(=O)[C@@H]6CCCN6)C(C)(C)[C@@H]5CC[C@]43C)[C@@H]2C1

Ans:
1. > 100 µM
2. > 100 µM
3. > 100 µM
